biological target: Cruzipain (Trypanosoma cruzi, UniProt P25779); experiment: Non-competitive inhibition of Trypanosoma cruzi cruzipain using Z-Phe-Arg-AMC as substrate assessed as function of velocity after 30 mins
Sequence (P25779 whole entry): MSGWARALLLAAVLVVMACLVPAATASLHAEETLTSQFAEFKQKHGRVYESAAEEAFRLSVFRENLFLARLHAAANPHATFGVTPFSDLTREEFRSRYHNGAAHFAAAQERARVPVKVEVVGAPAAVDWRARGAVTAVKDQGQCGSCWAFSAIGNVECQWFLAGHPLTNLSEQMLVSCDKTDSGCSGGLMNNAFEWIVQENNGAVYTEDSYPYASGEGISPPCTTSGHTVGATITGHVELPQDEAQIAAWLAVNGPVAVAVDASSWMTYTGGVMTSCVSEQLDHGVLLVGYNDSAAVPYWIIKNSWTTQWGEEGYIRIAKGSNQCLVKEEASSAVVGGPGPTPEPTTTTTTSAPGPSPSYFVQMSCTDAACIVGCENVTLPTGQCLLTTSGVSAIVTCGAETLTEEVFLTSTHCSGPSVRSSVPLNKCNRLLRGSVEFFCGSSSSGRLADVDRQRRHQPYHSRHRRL
measured metric: Ki

[
  {
    "compound structure": "C/C(=N/NC(N)=S)c1cccc(Br)c1",
    "measured metric": "Ki",
    "experimental result": "0.142 µM"
  }
]

// field: Ki; key: `C/C(=N\NC(N)=[Se])c1cccc(Br)c1` ; value = 0.0297 µM

// field: Ki; key: `CCCC/C(=N/NC(N)=[Se])c1ccc(Cl)c(Cl)c1` ; value = 0.0037 µM

// field: Ki; key: `NC(=[Se])NN=C(c1cccc(Br)c1)c1cccc(Br)c1` ; value = 0.0133 µM

###

assay: Cytotoxicity against African green monkey Vero cells after 72 hrs by resazurin assay; type: cell-based; settings: chlorocebus sabaeus
CC50 at 72 h values by entry
Give the quantity in µM, number only.

Would you please look over these solved cases?
[
  {
    "compound": "NC(=[Se])N/N=C/c1cccc(C(F)(F)F)c1",
    "CC50 at 72 h (µM)": 167
  },
  {
    "compound": "CCCC/C(=N/NC(N)=[Se])c1ccc(Cl)c(Cl)c1",
    "CC50 at 72 h (µM)": 81.8
  }
]

// field: CC50 at 72 h; key: `NC(=[Se])N/N=C/c1ccc(Cl)c(Cl)c1` ; value = 95.1

// field: CC50 at 72 h; key: `NC(=[Se])N/N=C/c1cccc(Br)c1` ; value = 172

// field: CC50 at 72 h; key: `NC(=[Se])NN=C(c1cccc(Br)c1)c1cccc(Br)c1` ; value = 71.2

// field: CC50 at 72 h; key: O=C(Cn1ccnc1[N+](=O)[O-])NCc1ccccc1 [BENZNIDAZOLE] ; value = 309

// field: CC50 at 72 h; key: `C/C(=N\NC(N)=[Se])c1cccc(Br)c1` ; value = 46.4

###

test system: Trypanosoma cruzi; test: Antitrypanosomal activity against amastigote stage of Trypanosoma cruzi Dm28c infected in African green monkey Vero cells assessed as growth inhibition at IC50 incubated 8 hrs post infection measured after 24 hrs relative to control; format: functional
measured metric: growth inhibition (GI) (%)
Give the quantity in %, number only.

Would you please look over these solved cases?
[
  {
    "compound structure": "CCCC/C(=N/NC(N)=[Se])c1ccc(Cl)c(Cl)c1",
    "growth inhibition (GI) / %": 66
  },
  {
    "compound structure": "NC(=[Se])N/N=C/c1cccc(C(F)(F)F)c1",
    "growth inhibition (GI) / %": 34
  },
  {
    "compound structure": "NC(=[Se])N/N=C/c1ccc(Cl)c(Cl)c1",
    "growth inhibition (GI) / %": 63
  }
]

Now take the following compound into account.
// field: growth inhibition (GI); key: `C/C(=N\NC(N)=[Se])c1cccc(Br)c1` ; value = 76

###

target: Cruzipain (Trypanosoma cruzi) (UniProt P25779); test: Inhibition of Trypanosoma cruzi cruzipain using Z-Phe-Arg-AMC as substrate at 10 uM incubated for 5 mins prior to substrate addition measured after 10 mins by fluorescence assay
Sequence (P25779 123-467 limits assumed): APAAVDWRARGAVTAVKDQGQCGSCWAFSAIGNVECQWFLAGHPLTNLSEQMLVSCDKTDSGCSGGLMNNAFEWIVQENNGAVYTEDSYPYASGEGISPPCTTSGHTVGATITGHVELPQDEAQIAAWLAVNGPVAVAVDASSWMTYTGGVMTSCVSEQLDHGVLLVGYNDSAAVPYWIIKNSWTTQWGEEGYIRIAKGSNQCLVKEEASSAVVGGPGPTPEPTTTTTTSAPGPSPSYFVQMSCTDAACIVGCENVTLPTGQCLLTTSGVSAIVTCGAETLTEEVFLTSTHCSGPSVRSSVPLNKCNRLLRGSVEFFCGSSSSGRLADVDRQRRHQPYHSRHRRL
Rule: inhibition under 90% gives no (0), otherwise yes (1).

Worked examples follow.
[
  {
    "compound structure": "NC(=[Se])N/N=C/c1cccc(Br)c1",
    "assigned label": "yes (1)"
  },
  {
    "compound structure": "NC(=[Se])N/N=C/c1ccc(Cl)c(Cl)c1",
    "assigned label": "yes (1)"
  }
]

Query block: Item `NC(=[Se])NN=C(c1cccc(Br)c1)c1cccc(Br)c1` with inhibition of 90% or above?
Result block: yes (1)

Query block: Item `C/C(=N\NC(N)=[Se])c1cccc(Br)c1` with inhibition of 90% or above?
Result block: yes (1)

Query block: Item `CCCC/C(=N/NC(N)=[Se])c1ccc(Cl)c(Cl)c1` with inhibition of 90% or above?
Result block: yes (1)

Query block: Item `C/C(=N/NC(N)=S)c1cccc(Br)c1` with inhibition of 90% or above?
Result block: no (0)

The measurements presented in this section are drawn from ChEMBL document CHEMBL3217446.
